# TARGET ENTITY: α4β1 integrin (Jurkat cell adhesion to immobilized CS-1 derived peptide CLHPGEILDVPST) (Homo sapiens, UniProt P05556+P13612)
# Construct: 100 μl of Jurkat cells (2.5×10^6 cells/ml) in DMEM plus BSA
# Sequence (P13612 34-1032): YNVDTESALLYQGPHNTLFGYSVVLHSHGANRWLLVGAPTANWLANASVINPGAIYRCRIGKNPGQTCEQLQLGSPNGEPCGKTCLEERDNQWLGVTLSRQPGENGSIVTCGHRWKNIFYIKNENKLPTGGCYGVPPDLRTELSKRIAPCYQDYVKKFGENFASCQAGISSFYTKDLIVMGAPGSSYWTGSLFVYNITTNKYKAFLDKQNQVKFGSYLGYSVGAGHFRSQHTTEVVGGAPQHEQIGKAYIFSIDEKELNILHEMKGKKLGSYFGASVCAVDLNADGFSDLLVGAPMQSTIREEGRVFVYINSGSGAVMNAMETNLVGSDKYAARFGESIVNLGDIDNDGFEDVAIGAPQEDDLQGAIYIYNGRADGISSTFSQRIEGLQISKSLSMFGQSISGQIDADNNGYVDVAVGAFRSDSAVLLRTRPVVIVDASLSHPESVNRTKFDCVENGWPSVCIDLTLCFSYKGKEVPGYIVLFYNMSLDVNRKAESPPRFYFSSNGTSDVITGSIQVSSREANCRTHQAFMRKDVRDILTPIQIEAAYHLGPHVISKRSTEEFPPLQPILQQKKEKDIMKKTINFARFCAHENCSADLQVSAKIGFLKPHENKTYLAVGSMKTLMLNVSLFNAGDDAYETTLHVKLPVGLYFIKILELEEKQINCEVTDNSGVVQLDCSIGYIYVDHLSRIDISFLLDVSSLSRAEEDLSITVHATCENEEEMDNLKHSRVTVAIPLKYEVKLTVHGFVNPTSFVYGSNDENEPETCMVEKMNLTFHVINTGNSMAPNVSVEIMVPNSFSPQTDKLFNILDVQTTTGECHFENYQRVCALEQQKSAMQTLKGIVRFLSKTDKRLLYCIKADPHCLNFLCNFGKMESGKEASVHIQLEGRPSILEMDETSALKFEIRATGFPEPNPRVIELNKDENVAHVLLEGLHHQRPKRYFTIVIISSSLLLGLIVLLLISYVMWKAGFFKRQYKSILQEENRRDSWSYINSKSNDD
# Sequence (P05556 21-798): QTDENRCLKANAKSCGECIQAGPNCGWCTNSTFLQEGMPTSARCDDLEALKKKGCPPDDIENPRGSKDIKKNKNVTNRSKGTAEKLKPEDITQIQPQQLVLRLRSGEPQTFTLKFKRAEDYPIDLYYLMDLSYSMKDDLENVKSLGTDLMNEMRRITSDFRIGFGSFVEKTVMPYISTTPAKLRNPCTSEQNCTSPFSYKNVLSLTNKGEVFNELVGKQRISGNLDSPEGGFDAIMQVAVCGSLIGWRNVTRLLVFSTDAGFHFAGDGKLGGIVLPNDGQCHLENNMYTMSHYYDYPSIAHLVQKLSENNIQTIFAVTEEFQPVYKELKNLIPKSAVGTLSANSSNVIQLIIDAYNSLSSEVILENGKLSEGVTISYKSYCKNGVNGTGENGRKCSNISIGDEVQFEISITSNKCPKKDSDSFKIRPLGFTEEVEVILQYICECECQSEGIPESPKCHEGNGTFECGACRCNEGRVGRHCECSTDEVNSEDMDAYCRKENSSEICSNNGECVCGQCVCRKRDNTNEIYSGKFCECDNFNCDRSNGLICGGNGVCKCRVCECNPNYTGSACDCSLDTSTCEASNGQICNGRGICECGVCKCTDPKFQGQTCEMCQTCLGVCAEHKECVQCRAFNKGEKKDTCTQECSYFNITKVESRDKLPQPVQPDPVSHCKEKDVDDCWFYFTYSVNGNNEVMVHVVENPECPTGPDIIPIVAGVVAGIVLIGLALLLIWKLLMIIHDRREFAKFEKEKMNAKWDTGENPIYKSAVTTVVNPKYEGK
# PROTOCOL NOTES: Jurkat-CS-1 assay
# DETAILS: Jurkat cells on CS-1 peptide coated plates; read-out: JK/CS-1 (Jurkat CS-1 Assay IC50 value range)
As shown below, each of these molecules has a reported IC50 value.
VALUE TYPE: IC50

In [3]: df
Out[3]:
                                   molecule  value_type    test_value
0  O=C(O)c1ccc(C(=O)N2CSC[C@H]2C(=O)N[C@@H](Cc2ccc(NC(=O)c3c(Cl)cccc3Cl)cc2)C(=O)O)nc1        IC50  50 to 750 nM
1  CC(C)(C)OC(=O)N1CSC[C@@H]1C(=O)N[C@@H](Cc1ccc(NC(=O)c2c(Cl)cccc2Cl)cc1)C(=O)O (relative stereo)        IC50       ≤ 50 nM
2  CCOC(=O)N1[C@@H](C(=O)N[C@@H](Cc2ccc(OCc3c(Cl)cccc3Cl)cc2)C(=O)O)CSC12CCCC2 (relative stereo)        IC50      ≥ 750 nM
3  CCOC(=O)N1CSC[C@@H]1C(=O)N[C@@H](Cc1ccc(NC(=O)c2ccccc2C(F)(F)F)cc1)C(=O)O        IC50  50 to 750 nM
4  O=C(Nc1ccc(C[C@H](NC(=O)[C@H]2CSCN2C(=O)OCc2ccccc2)C(=O)O)cc1)c1c(Cl)cccc1Cl (relative stereo)        IC50  50 to 750 nM
5  CCOC(=O)N1CSC[C@@H]1C(=O)N[C@@H](Cc1ccc(NC(=O)Nc2c(Cl)cccc2Cl)cc1)C(=O)O        IC50      ≥ 750 nM
